The measurements presented in this section are drawn from patent US8513271B2.

- Test System: delta opioid receptor (Mus musculus)
- Construct: NG108-15 cell membranes were purchased from Applied Cell Sciences (Rockville, Md.); host or cells: NG108-15 cell membranes
- Assay Overview: [35S]GTPγS binding assay in NG108-15 cell membranes (delta opioid functional assay), 200 nM screen
- Assay type: biochemical
- Test Parameters: NG108-15 cell membranes; averages if tested more than once; read-out: GTPγS δ-opioid receptor EC50
Reported Property: EC50 (µM)
Could you give me the number in µM? Just the number is fine.

Here are 8 molecules together with their reported answers.
>  <Molecule>
Cc1ccc(Oc2nc(-c3cncc(F)c3)ncc2NC[C@@H]2CCCN2)cc1F [Cpd 185]

>  <Test System>
delta opioid receptor (Mus musculus)

>  <Uom>
µM

>  <EC50>
0.101

$$$$
>  <Molecule>
COc1ccc(Oc2nc(-c3ccc4c(c3)CCO4)ncc2NC[C@@H]2CCCN2)cc1 [Cpd 63]

>  <Test System>
delta opioid receptor (Mus musculus)

>  <Uom>
µM

>  <EC50>
0.693

$$$$
>  <Molecule>
COc1ccc(Oc2nc(-c3cccnc3)ncc2NC[C@@H]2C[C@@H](O)CN2)cc1 [Cpd 270]

>  <Test System>
delta opioid receptor (Mus musculus)

>  <Uom>
µM

>  <EC50>
0.197

$$$$
>  <Molecule>
COc1ccc(Oc2nc(-c3cncc(C)c3)ncc2N2CCCNCC2)cc1 [Cpd 358]

>  <Test System>
delta opioid receptor (Mus musculus)

>  <Uom>
µM

>  <EC50>
0.0242

$$$$
>  <Molecule>
FC(F)(F)COc1ccc(Oc2nc(-c3cncnc3)ncc2NC[C@@H]2CCCN2)cc1 [Cpd 123]

>  <Test System>
delta opioid receptor (Mus musculus)

>  <Uom>
µM

>  <EC50>
0.057

$$$$
>  <Molecule>
COc1ccc(Oc2nc(-c3cnc(OC)nc3OC)ncc2NC[C@@H]2CCCN2)cc1 [Cpd 58]

>  <Test System>
delta opioid receptor (Mus musculus)

>  <Uom>
µM

>  <EC50>
1.51

$$$$
>  <Molecule>
Cc1nc2ccc(Oc3nc(-c4cncc(C#N)c4)ncc3NC[C@@H]3CCCN3)cc2s1 [Cpd 90]

>  <Test System>
delta opioid receptor (Mus musculus)

>  <Uom>
µM

>  <EC50>
0.923

$$$$
>  <Molecule>
CNCCNc1cnc(-c2cccnc2)nc1Oc1ccc(OC)cc1 [Cpd 297]

>  <Test System>
delta opioid receptor (Mus musculus)

>  <Uom>
µM

>  <EC50>
0.424

$$$$

Here's the next entry for you.
Prompt: Consider the molecule COc1ccc(Oc2nc(-c3cncc(C#N)c3)ncc2NCC2CNC2)cc1 [Cpd 215] and give its recorded EC50.
Response: 0.128

###

- Test System: delta opioid receptor (Mus musculus, UniProt P32300)
- Construct: NG108-15 cell membranes were purchased from Applied Cell Sciences (Rockville, Md.); host or cells: NG108-15 cell membranes
- Sequence (P32300 whole entry): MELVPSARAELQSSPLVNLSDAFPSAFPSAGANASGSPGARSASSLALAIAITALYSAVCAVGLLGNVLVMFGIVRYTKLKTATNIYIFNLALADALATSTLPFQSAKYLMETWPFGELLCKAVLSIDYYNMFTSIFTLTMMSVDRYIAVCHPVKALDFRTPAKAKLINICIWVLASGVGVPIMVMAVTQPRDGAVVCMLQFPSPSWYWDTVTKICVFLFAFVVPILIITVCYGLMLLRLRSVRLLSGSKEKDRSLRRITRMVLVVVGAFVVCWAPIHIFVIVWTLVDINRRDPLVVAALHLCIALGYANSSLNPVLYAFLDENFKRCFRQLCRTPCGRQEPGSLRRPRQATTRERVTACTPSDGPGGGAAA
- Assay Overview: [35S]GTPγS binding assay in NG108-15 cell membranes (delta opioid functional assay), 200 nM screen
- Assay type: biochemical
- Test Parameters: 200 nM test compound; relative to calculated max of SNC80 dose response curve; NG108-15 cell membranes; averages if tested more than once
Give rule met when the value for GTPγS δ-RelEfficacy @200 nM is at least 0.6. Give rule not met when it is less.

Check out these entries, answers already filled in.
>  <Molecule>
COc1ccc(Oc2nc(-c3cncc(C#N)c3)ncc2N2CCNC[C@H]2C)cc1

>  <Assigned Category>
rule met

$$$$
>  <Molecule>
COc1ccc(Oc2nc(-c3cncc(C#N)c3)ncc2N2CCNC[C@@H]2C)cc1

>  <Assigned Category>
rule met

$$$$
>  <Molecule>
COc1ccc(Oc2nc(-c3cccnc3)ncc2NC2CCCCC2N)cc1 (single isomer, unassigned)

>  <Assigned Category>
rule not met

$$$$
>  <Molecule>
COCCOc1ccc(Oc2nc(-c3cncc(C)c3)ncc2NC[C@@H]2CCCN2)cc1

>  <Assigned Category>
rule not met

$$$$
>  <Molecule>
O=C(c1cccc(Oc2nc(-c3cncc(F)c3)ncc2NC[C@@H]2CCCN2)c1)N1CCOCC1

>  <Assigned Category>
rule not met

$$$$
>  <Molecule>
COc1ccc(Oc2nc(-c3cccnc3)ncc2N2CC[C@@H](N)C2)cc1

>  <Assigned Category>
rule met

$$$$

Prompt: Identify whether the reported GTPγS δ-RelEfficacy @200 nM of the following molecule is 0.6 or greater: COc1ccc(Oc2nc(-c3cncc(C)c3)ncc2NCc2cnc[nH]2)cc1
Response: rule not met

Prompt: Has COc1ccc(Oc2nc(-c3cccnc3)ncc2NC[C@@H]2CCCN2)cc1C a recorded GTPγS δ-RelEfficacy @200 nM greater than or equal to 0.6?
Response: rule met

Prompt: Identify whether the reported GTPγS δ-RelEfficacy @200 nM of the following molecule is 0.6 or greater: COc1ccc(Oc2nc(-c3cccnc3)ncc2N2CCNCC2)cc1
Response: rule not met
